Biological target: human TPO receptor (hTPOR) (Homo sapiens, UniProt P40238)
Sequence (P40238 26-635): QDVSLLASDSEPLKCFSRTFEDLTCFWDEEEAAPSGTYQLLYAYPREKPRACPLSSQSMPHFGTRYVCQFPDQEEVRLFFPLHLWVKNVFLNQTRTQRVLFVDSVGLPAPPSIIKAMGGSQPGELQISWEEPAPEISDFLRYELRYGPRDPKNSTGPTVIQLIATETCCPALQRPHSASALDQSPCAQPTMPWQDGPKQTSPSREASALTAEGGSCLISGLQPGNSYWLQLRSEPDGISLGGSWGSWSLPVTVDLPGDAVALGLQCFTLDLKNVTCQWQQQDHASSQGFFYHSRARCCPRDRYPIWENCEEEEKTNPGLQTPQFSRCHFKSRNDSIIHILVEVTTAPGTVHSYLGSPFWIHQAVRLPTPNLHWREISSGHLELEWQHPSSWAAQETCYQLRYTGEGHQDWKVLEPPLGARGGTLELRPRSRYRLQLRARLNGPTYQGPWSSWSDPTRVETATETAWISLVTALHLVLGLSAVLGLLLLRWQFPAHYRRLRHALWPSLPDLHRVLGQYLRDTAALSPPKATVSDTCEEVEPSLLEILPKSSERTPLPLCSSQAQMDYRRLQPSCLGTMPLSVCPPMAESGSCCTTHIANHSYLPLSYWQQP
Assay: Proliferation of TPO dependent BaF/hTPOR cells, WST-1, thrombopoietic activity ED50 (Test Example 3)
Conditions: 20 h incubation then WST-1 4 h, absorbance at 450 nm
measure: EC50 (nM)

Below, 4 compounds whose answers are already recorded.
O=C(O)/C(Cl)=C/c1ccc(C(=O)Nc2nc(-c3ccc(Br)cc3F)cs2)cc1 [Compound A-69]    71
O=C(O)CCc1ccc(C(=O)Nc2nc(-c3ccc(Cl)c(Cl)c3)cs2)cc1 [Compound G-2]    299
CCOC(=O)/C(C)=C/c1ccc(C(=O)Nc2nc(-c3ccc(C(F)(F)F)cc3)cs2)cc1 [Compound A-25]    150
C/C(=C\c1ccc(C(=O)Nc2nc(-c3ccc(Cl)c(Cl)c3)cs2)cc1)C(=O)NCCC(=O)O [Compound B-28]    565

P: O=C(O)/C(Cl)=C/c1ccc(C(=O)Nc2nc(-c3cc(C(F)(F)F)ccc3F)cs2)cc1 [Compound A-79]
Q: C/C(=C\c1ccc(C(=O)Nc2nc(-c3cccc(F)c3)cs2)cc1)C(=O)O [Compound A-18]
R: Cc1cccc(-c2csc(NC(=O)c3ccc(/C=C(\Cl)C(=O)O)cc3)n2)c1F [Compound A-83]
S: O=C(O)/C(Cl)=C/c1ccc(C(=O)Nc2nc(-c3cccc(OC(F)(F)F)c3)cs2)cc1 [Compound A-32]
Descending sort on EC50 required. Output spec: a listing of the labels in the requested order.
P, Q, R, S
(P: 410 nM, Q: 132 nM, R: 77 nM, S: 40 nM)

----------
Target: human TPO receptor (hTPOR) (Homo sapiens, UniProt P40238)
Experiment: Proliferation of TPO dependent BaF/hTPOR cells, WST-1, thrombopoietic activity ED50 (Test Example 3)
Settings: 20 h incubation then WST-1 4 h, absorbance at 450 nm
Description: FIG. 2: The chart represents proliferation of the human TPO dependent cells bearing human TPO receptors by the present invention compound, wherein the x-axis is concentration of the present invention compound, and the y-axis is the absorbance as an indicator of cell proliferation. Open circles indicate a response of human TPO, and closed circles indicate a response of the compound (B-1). […]
measure: EC50 (µM)

NC(=O)/C=C/c1ccc(C(=O)Nc2nc(-c3ccc(Cl)c(Cl)c3)cs2)cc1    0.257

P: O=C(O)C(Br)=Cc1ccc(C(=O)Nc2nc(-c3ccc(Cl)c(Cl)c3)cs2)cc1
Q: CCOC(=O)C(C)=Cc1ccc(C(=O)Nc2nc(-c3ccc(F)c(F)c3)cs2)cc1
Hi, I'm comparing P with Q and wondering which one has the bigger number for EC50. Any idea? Refer to your chosen entry by its label in the reply.
P
(P: 0.922 µM, Q: 0.504 µM)

----------
Target: human TPO receptor (hTPOR) (Homo sapiens, UniProt P40238)
Assay: Proliferation of TPO dependent BaF/hTPOR cells, WST-1, thrombopoietic activity ED50 (Test Example 3)
Conditions: 20 h incubation then WST-1 4 h, absorbance at 450 nm
measure: EC50 (nM)

Previously resolved entries follow.
CCOC(=O)/C=C/c1ccc(C(=O)Nc2nc(-c3ccc(Cl)c(Cl)c3)cs2)cc1    218
O=C(O)/C(Cl)=C/c1ccc(C(=O)Nc2nc(-c3ccc(OC(F)(F)F)cc3)cs2)cc1    205
CC(C)Cc1ccc(-c2csc(NC(=O)c3ccc(/C=C(\Cl)C(=O)O)cc3)n2)cc1    204
CCOC(=O)/C(C)=C/c1ccc(C(=O)Nc2nc(-c3cccc(OC(F)(F)F)c3)cs2)cc1    170
CCOC(=O)/C(Cl)=C/c1ccc(C(=O)Nc2nc(-c3ccc(F)cc3)cs2)cc1    96
O=C(O)/C(Cl)=C/c1ccc(C(=O)Nc2nc(-c3cc(F)ccc3F)cs2)cc1    497

I: CC(=Cc1ccc(C(=O)Nc2nc(-c3ccc(Cl)c(Cl)c3)cs2)cc1)C(=O)N1CCOCC1
II: C/C(=C\c1ccc(C(=O)Nc2nc(-c3ccc(Cl)c(Cl)c3)cs2)cc1)C(=O)Nc1ccccc1
Of I and II , whose reported EC50 is the larger number? # respond with the chosen item's label
I

P: O=C(O)/C=C/c1ccc(C(=O)Nc2nc(-c3ccc(Cl)c(Cl)c3)cs2)cc1
Q: Cn1cc(-c2csc(NC(=O)c3ccc(/C=C(\Cl)C(=O)O)cc3)n2)c2ccccc21
// compare measured EC50, left P , right Q , return larger Please identify the chosen entry by its label.
Q
(Q: 211 nM, P: 124 nM)

These measurements were taken from patent US20100022542A1.
